- Target Or Test System: T1, 2PT-NBD1 (Homo sapiens, UniProt P13569, A534P/I539T/S492P/V470M)
- T1 construct: 2PT-NBD1 mutants (residues 387-646 containing the mutations S492P, A534P, I539T); His6-SUMO (N, cleaved yes); made in house; host or cells: Escherichia coli BL21(DE3) pLysS
- T1 sequence (P13569 388-646 V470M/S492P/A534P/I539T): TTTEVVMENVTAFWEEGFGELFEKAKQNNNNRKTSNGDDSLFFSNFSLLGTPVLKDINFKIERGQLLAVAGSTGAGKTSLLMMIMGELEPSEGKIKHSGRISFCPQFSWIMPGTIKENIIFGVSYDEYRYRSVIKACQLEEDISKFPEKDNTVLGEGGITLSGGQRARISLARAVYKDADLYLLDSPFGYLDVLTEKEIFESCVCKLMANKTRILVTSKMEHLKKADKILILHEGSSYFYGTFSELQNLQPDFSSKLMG
- Test Name: Thermal shift assay (DSF) of 2PT-NBD1
- Format: binding
- Condition Details: versus isolated 2PT-NBD1
// boundary case: increase of Tm of 2PT-NBD1 equal to 10 °C maps to false (0); strictly smaller maps to true (1)

Dear colleague, could you confirm whether increase of Tm of 2PT-NBD1 of T2a: NBD1-specific CFTR-stabilizing nanobody, SEQ ID NO:3, binds epitope 1 (protein, T2a Nanobody amino acid sequence) VHH: QVQLQESGGGLVQAGGSLRLSCAASGSIFRIDAMGWYRQAPGKQRELVAHSTSGGSTDYADSVKGRFTISRDNAKNTVYLQMNSLKPEDTAVYYCNADVRTRWYASNNYWGQGTQVTVSS falls below 10 °C? Thanks.
false (0)

Dear colleague, could you confirm whether increase of Tm of 2PT-NBD1 of D12: NBD1-specific CFTR-stabilizing nanobody, SEQ ID NO:2, binds epitope 1 (protein, D12 Nanobody amino acid sequence) VHH: QVQLQESGGGLVQAGSSLRLACAATGSIRSINNMGWYRQAPGKQRGMVAIITRVGNTDYADSVKGRFTISRDNAKNTVYLQMNSLKPEDTATYYCHAEITEQSRPFYLTDDYWGQGTQVTVSS falls below 10 °C? Thanks.
false (0)

Dear colleague, could you confirm whether increase of Tm of 2PT-NBD1 of T8: nanobody, SEQ ID NO:7, binds epitope 2 including F508, stabilizes WT CFTR but not F508del (protein, T8 Nanobody amino acid sequence) VHH: QVQLQESGGGLVQPGGSLRLSCAASGSTSSINAMGWYRQAPGKQREPVAISSSGGDTRYAEPVKGRFTISRDNAQNKVYLQMNSLKPEDTAVYYCWLNWGRTSVNSWGQGTQVTVSS falls below 10 °C? Thanks.
true (1)

Dear colleague, could you confirm whether increase of Tm of 2PT-NBD1 of T4: nanobody, SEQ ID NO:6, binds epitope 2 including F508, stabilizes wild type CFTR (protein, T4 Nanobody amino acid sequence) VHH: QVQLQESGGGLVQAGGSLRLSCAASGSTFAIIAMGWYRQAPGKQRELVAVISTGDTRYADSVKGRFTISRDNAKNTVYLQMDSLRPEDTAVYYCNAAVQVRDYRNYWGQGTQVTVSS falls below 10 °C? Thanks.
false (0)

Dear colleague, could you confirm whether increase of Tm of 2PT-NBD1 of T27: NBD1-specific CFTR-stabilizing nanobody, SEQ ID NO:4, binds epitope 1 (protein, T27 Nanobody amino acid sequence) VHH: QVQLQESGGGLEQPGGSLRLSCATSGVIFGINAMGWYRQAPGKQRELVATFTSGGSTNYADFVEGRFTISRDNAKNTVYLQMNGLRPEDTAVYYCHATVVVSRYGLTYDYWGQGTQVTVSS falls below 10 °C? Thanks.
false (0)
